# Test system: NMP53^−/− cells
# PROCEDURE DETAILS: Colony formation assay on NMP53^−/− cells
# Format: cell-based, murine
# COND: NMP53^−/− versus NMCdkn2a^ARF−/− cells, colony formation assay
MEASURED QUANTITY: selectivity for NMP53^−/− cells

INSERT INTO results (molecule, target_under_test, endpoint_result) VALUES
  ('CCn1cc(-c2ccc(CNc3ccc(F)c(NC(=O)CCc4ccco4)c3)cc2)cn1', 'NMP53^−/− cells', 'loss of selectivity'),
  ('CC(C)n1cc(-c2ccc(CNc3ccc(F)c(NC(=O)CCc4ccco4)c3)cc2)cn1', 'NMP53^−/− cells', 'loss of selectivity'),
  ('CCCn1cc(-c2ccc(CNc3ccc(F)c(NC(=O)CCc4ccco4)c3)cc2)cn1', 'NMP53^−/− cells', 'loss of selectivity'),
  ('O=C(CCc1ccccc1)Nc1cc(NCc2ccc(-c3cn[nH]c3)cc2)ccc1F', 'NMP53^−/− cells', '4 fold');

* * *

# System: NMCdkn2a^ARF−/− cells
# PROCEDURE DETAILS: Colony formation assay on NMCdkn2a^ARF−/− cells
# Type: cell-based, murine
# COND: Mus musculus, 120 h, 5 days, read-out: EC (NMCdkn2a^ARF−/−)
Reported values of minimal effective concentration for individual entries
MEASURED QUANTITY: minimal effective concentration

INSERT INTO measurements (molecule, measured_quantity, endpoint_result) VALUES
  ('COc1cc(CNc2ccc(F)c(NC(=O)CCc3ccco3)c2)ccc1-c1cn[nH]c1 [Compound 127b]', 'minimal effective concentration', '> 1 µM'),
  ('COc1cc(-c2cnn(C)c2)ccc1CNc1ccc(F)c(NC(=O)CCc2ccco2)c1 [Compound 128d]', 'minimal effective concentration', '> 0.5 µM'),
  ('Cn1cc(-c2ccc(CNc3ccc(F)c(NC(=O)/C=C/c4ccco4)c3)cc2)cn1 [Compound 107r]', 'minimal effective concentration', '> 0.25 µM'),
  ('O=C(CCc1ccco1)Nc1cc(NCc2ccc(-c3cn[nH]c3)cc2)ccc1F [Compound 2c]', 'minimal effective concentration', '> 1 µM'),
  ('Cn1cc(-c2ccc(CNc3ccc(F)c(NC(=O)CCc4ccccc4)c3)nc2)cn1 [Compound 130]', 'minimal effective concentration', '> 1 µM'),
  ('Cn1cc(-c2ccc(CNc3ccc(F)c(NC(=O)CCc4ccco4)c3)cc2)c(N)n1 [Compound 145]', 'minimal effective concentration', '> 1 µM'),
  ('Cc1ccc(CCC(=O)Nc2cc(NCc3ccc(-c4cn[nH]c4)cc3)ccc2F)o1 [Compound 106h]', 'minimal effective concentration', '2 µM'),
  ('Cn1cc(-c2ccc(CNc3ccc(F)c(NC(=O)CCc4ccsc4)c3)cc2)cn1 [Compound 107p]', 'minimal effective concentration', '> 0.25 µM'),
  ('CC(=O)n1cc(-c2ccc(CNc3ccc(F)c(NC(=O)CCc4ccco4)c3)cc2)cn1 [Compound 164]', 'minimal effective concentration', '> 1 µM'),
  ('Cc1noc(C)c1-c1ccc(CNc2ccc(F)c(NC(=O)CCc3ccco3)c2)cc1 [Compound 139]', 'minimal effective concentration', '1 µM'),
  ('CN(C(=O)CCc1ccco1)c1cc(NCc2ccc(-c3cnn(C)c3)cc2)ccc1F [Compound 4]', 'minimal effective concentration', '> 4 µM'),
  ('O=C(CCc1ccc[nH]1)Nc1cc(NCc2ccc(-c3cn[nH]c3)cc2)ccc1F [Compound 106q]', 'minimal effective concentration', '> 4 µM'),
  ('O=C(CCc1ccco1)Nc1cc(NCc2ccc(-c3cn[nH]c3)nc2)ccc1F [Compound 127e]', 'minimal effective concentration', '> 2 µM'),
  ('O=C(CC1CCCCC1)Nc1cc(NCc2cc(-c3cc4cccnc4[nH]3)ccn2)ccc1F [Compound 8oj]', 'minimal effective concentration', '1 µM'),
  ('Cn1cc(-c2ccc(CNc3ccc(F)c(NC(=O)CCc4ccccc4)c3)cc2)cn1 [Compound 97]', 'minimal effective concentration', '1 µM'),
  ('Cn1cc(-c2ccc(CNc3ccc(F)c(NC(=O)CCc4ccco4)c3)cc2)cn1 [Compound 3a]', 'minimal effective concentration', '0.25 to 0.5 µM'),
  ('Cn1cc(-c2ccc(CNc3ccc(F)c(NC(=O)CCc4ccc[nH]4)c3)cc2)cn1 [Compound 107q]', 'minimal effective concentration', '4 µM');

* * *

# Test system: NMCdkn2a^ARF−/− cells
# PROCEDURE DETAILS: Colony formation assay on NMCdkn2a^ARF−/− cells
# Format: cell-based, murine
# COND: Mus musculus, 120 h, 5 days, read-out: EC (NMCdkn2a^ARF−/−)
MEASURED QUANTITY: log10 minimal effective concentration (log10 of the value in µM)

INSERT INTO measurements (compound, endpoint_result) VALUES
  ('NCCn1cc(-c2ccc(CNc3ccc(F)c(NC(=O)CCc4ccco4)c3)cc2)cn1', 0.00),
  ('Cn1cc(-c2ccc(CNc3ccc(F)c(NC(=O)Cc4ccco4)c3)cc2)cn1 [Compound 107m]', 1.20),
  ('O=C(Cc1ccccc1)Nc1cc(NCc2cc(-c3cc4cccnc4[nH]3)ccn2)ccc1F [Compound 18c]', -0.30),
  ('Cc1ccc(CCC(=O)Nc2cc(NCc3ccc(-c4cnn(C)c4)cc3)ccc2F)o1 [Compound 107h]', 0.00),
  ('CCn1cc(-c2ccc(CNc3ccc(F)c(NC(=O)CCc4ccco4)c3)cc2)cn1', -0.60),
  ('Cn1cc(-c2ccc(CNc3ccc(F)c(NC(=O)CCC4CCCO4)c3)cc2)cn1 (stereo not shown) [Compound 107g]', 0.30),
  ('O=C(CC1CC1)Nc1cc(NCc2cc(-c3cc4cccnc4[nH]3)ccn2)ccc1F', 0.00),
  ('Cn1cc(-c2ccc(CNc3ccc(F)c(NC(=O)CCc4cccs4)c3)cc2)cn1 [Compound 107o]', 0.00);

* * *

# TARGET UNDER TEST: Aurora A (Homo sapiens (Human))
# Sequence (O14965 whole entry): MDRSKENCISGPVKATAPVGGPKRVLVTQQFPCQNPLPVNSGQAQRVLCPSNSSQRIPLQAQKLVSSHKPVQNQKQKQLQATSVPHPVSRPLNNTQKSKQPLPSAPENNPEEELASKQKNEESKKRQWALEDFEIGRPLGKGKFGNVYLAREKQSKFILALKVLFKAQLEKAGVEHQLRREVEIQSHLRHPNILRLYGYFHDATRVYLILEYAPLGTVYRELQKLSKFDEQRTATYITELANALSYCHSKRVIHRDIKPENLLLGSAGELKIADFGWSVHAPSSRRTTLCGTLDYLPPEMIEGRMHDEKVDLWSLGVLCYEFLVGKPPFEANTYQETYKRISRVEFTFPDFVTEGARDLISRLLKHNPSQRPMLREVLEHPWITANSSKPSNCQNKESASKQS
MEASURED QUANTITY: IC50 (nM)

INSERT INTO measurements (compound, endpoint_result) VALUES
  ('O=C(CCc1ccco1)Nc1cc(NCc2ccc(-c3cn[nH]c3)cc2)ccc1F [Compound 2c]', 259);

* * *

Reported values of minimal effective concentration for individual entries
# System: NMCdkn2a^ARF−/− cells
# PROCEDURE DETAILS: Colony formation assay on NMCdkn2a^ARF−/− cells
# Type: cell-based, murine
# COND: Mus musculus, 120 h, 5 days, read-out: EC (NMCdkn2a^ARF−/−)
MEASURED QUANTITY: minimal effective concentration

INSERT INTO results (compound, endpoint_result) VALUES
  ('COc1cc(-c2cn[nH]c2)ccc1CNc1ccc(F)c(NC(=O)CCc2ccco2)c1 [Compound 127d]', '2 µM'),
  ('Cn1cc(-c2ccc(CNc3ccc(F)c(NC(=O)CCc4ccoc4)c3)cc2)cn1 [Compound 107n]', '> 0.25 µM'),
  ('Nc1n[nH]cc1-c1ccc(CNc2ccc(F)c(NC(=O)CCc3ccco3)c2)cc1 [Compound 144]', '> 1 µM'),
  ('O=C(CCc1ccco1)Nc1cc(NCc2ccc(-c3cn[nH]c3)cc2F)ccc1F [Compound 127c]', '0.5 to 1 µM'),
  ('Cn1cc(-c2ccc(CNc3ccc(F)c(NC(=O)CCc4ccco4)c3)c(F)c2)cn1 [Compound 128c]', '0.5 to 1 µM'),
  ('O=C(CCc1ccccc1)Nc1cc(NCc2ccc(-c3cn[nH]c3)cc2)ccc1F [Compound 95b]', '2 µM'),
  ('CC(C)n1cc(-c2ccc(CNc3ccc(F)c(NC(=O)CCc4ccco4)c3)cc2)cn1 [Compound 3d]', '4 µM'),
  ('Cn1ccc(Nc2ccc(CNc3ccc(F)c(NC(=O)CCc4ccco4)c3)cc2)n1 [Compound 155]', '> 1 µM');

* * *

Entries with their measured IC50, system AURKA (Homo sapiens (Human)):
MEASURED QUANTITY: IC50

INSERT INTO measurements (compound, endpoint_result) VALUES
  ('Cn1cc(-c2ccc(CNc3ccc(F)c(NC(=O)CCc4ccoc4)c3)cc2)cn1 [Compound 107n]', '> 10 µM'),
  ('Cn1cc(-c2ccc(CNc3ccc(F)c(NC(=O)CCc4ccsc4)c3)cc2)cn1 [Compound 107p]', '> 10 µM'),
  ('O=C(CCc1ccccc1)Nc1cc(NCc2ccc(-c3cn[nH]c3)cc2)ccc1F [Compound 95b]', '0.0079 µM'),
  ('O=C(Cc1ccccc1)Nc1cc(NCc2cc(-c3cc4cccnc4[nH]3)ccn2)ccc1F [Compound 18c]', '> 10 µM'),
  ('O=C(CCc1ccco1)Nc1cc(NCc2ccc(-c3cn[nH]c3)cc2)ccc1F [Compound 2c]', '0.0276 µM'),
  ('Cn1cc(-c2ccc(CNc3ccc(F)c(NC(=O)CCc4cccs4)c3)cc2)cn1 [Compound 107o]', '> 10 µM'),
  ('Cn1cc(-c2ccc(CNc3ccc(F)c(NC(=O)C=Cc4ccccc4)c3)cc2)cn1 [Compound 107s]', '> 10 µM'),
  ('Cn1cc(-c2ccc(CNc3ccc(F)c(NC(=O)/C=C/c4ccco4)c3)cc2)cn1 [Compound 107r]', '> 10 µM');

Reference source: patent US20240101538A1
